Experimental protocol: yeast display, Sf9 membrane polyspecificity reagent, FACS + sequencing; frameworks hold sequencing errors

- Sequence string: "QVQLVESCGGLVQAGGSLRLSCAASGFTFWRYAMGWYRQAPGKERELVAAISRTGGRTYYADSVKGRFTISRDNAKNTVYLQMNSLKPEDTAVYYCAAVKYETYRYNYDYWGQGTQVTVSS"
  polyreactivity (PSR sort gate): "high polyreactivity"
- Sequence string: "QVQLVESGGGLVQAGGSLRLSCAASGSISYYYGMGWYRQAPGKERELVAAISTRGGSTYYADSVKGRFTISRDNAKNTVYLQMNSLKPEDTAVYYCAVRYYRPYSRFDYWGQGTQVTVSS"
  polyreactivity (PSR sort gate): "high polyreactivity"
